Target: Recombinant human Tyro3 (455-end) (Homo sapiens)
Construct: GST (N)
Assay: Kinase enzymatic activity assay ([33P]-ATP phosphate transfer), Tyro3
Conditions: inhibitory activity on Tyro3; class symbols
MEASUREMENT_LABEL: IC50

• CN1CCC(n2cc(-c3cnc(N)c(-c4nnc(-c5c(Cl)cccc5Cl)o4)c3)cn2)CC1 = < 500 nM
• Nc1ncc(-c2cnn(C3CCN(C(=O)Cc4ccccc4)CC3)c2)cc1-c1nnc(-c2c(Cl)cccc2Cl)o1 = 1000 to 10000 nM
• CCN1CCC(n2cc(-c3cnc(N)c(-c4ncc(-c5ccccc5)o4)c3)cn2)CC1 = < 500 nM
• Nc1ncc(-c2cn[nH]c2)cc1-c1noc(-c2ccccc2)n1 = < 500 nM
• Nc1ncc(-c2cnn(C3CCNCC3)c2)cc1-c1ncc(-c2cccc(Cl)c2)o1 = < 500 nM
• CC(=O)N1CCC(n2cc(-c3cnc(N)c(-c4nc(-c5ccccc5)no4)c3)cn2)CC1 = < 500 nM
• Nc1ncc(-c2cnn(C3CCOCC3)c2)cc1-c1noc(-c2ccccc2)n1 = 500 to 1000 nM
• Nc1ncc(-c2cnn(C3CCN(C(=O)c4ccccc4)CC3)c2)cc1-c1ncc(-c2cccc(Cl)c2)o1 = < 500 nM

====

Target: Recombinant human Tyro3 (455-end) (Homo sapiens, UniProt Q06418)
Construct: GST (N)
Sequence (Q06418 455-890 limits assumed): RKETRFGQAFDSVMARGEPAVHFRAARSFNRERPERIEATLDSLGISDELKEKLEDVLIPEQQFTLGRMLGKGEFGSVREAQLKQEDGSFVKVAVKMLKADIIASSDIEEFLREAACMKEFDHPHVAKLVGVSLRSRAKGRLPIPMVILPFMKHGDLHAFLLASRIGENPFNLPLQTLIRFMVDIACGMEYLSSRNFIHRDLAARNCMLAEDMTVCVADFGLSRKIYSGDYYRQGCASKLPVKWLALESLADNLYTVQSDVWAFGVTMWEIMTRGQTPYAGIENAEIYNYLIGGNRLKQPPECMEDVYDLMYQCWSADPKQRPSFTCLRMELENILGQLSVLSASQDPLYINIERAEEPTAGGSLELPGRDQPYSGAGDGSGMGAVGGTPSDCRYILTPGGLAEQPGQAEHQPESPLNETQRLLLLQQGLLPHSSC
Test: Kinase enzymatic activity assay ([33P]-ATP phosphate transfer), Tyro3
Details: inhibitory activity on Tyro3; class symbols
MEASUREMENT_LABEL: IC50

* CCN1CCC(n2cc(-c3cnc(N)c(-c4nnc(-c5c(Cl)cccc5Cl)o4)c3)cn2)CC1 | < 500 nM
* Nc1ncc(-c2cnn(C3CCNCC3)c2)cc1-c1cc(-c2ccccc2)on1 | < 500 nM
* Nc1ncc(-c2cnn(C3CCOCC3)c2)cc1-c1cc(-c2ccccc2)on1 | < 500 nM
* CN1CCC(n2cc(-c3cnc(N)c(-c4cc(-c5ccccc5)on4)c3)cn2)CC1 | < 500 nM
* Nc1ncc(-c2cn[nH]c2)cc1-c1nnc(-c2c(Cl)cccc2Cl)o1 | < 500 nM
* Nc1ncc(-c2cnn(C3CCN(C(=O)c4ccccc4)CC3)c2)cc1-c1nc(-c2ccccc2)no1 | 1000 to 10000 nM
* Nc1ncc(-c2cnn(C3CCN(C(=O)C4CC4)CC3)c2)cc1-c1nc(-c2ccccc2)no1 | 1000 to 10000 nM
* Nc1ncc(-c2cnn(C3CCNCC3)c2)cc1-c1nnc(-c2ccccn2)o1 | < 500 nM

====

// reported pIC50 per item
Target: human Mer (578-872) (Homo sapiens)
Construct: GST (N); made in house; host or cells: Sf9 insect cells (baculovirus)
Sequence (Q12866 578-872): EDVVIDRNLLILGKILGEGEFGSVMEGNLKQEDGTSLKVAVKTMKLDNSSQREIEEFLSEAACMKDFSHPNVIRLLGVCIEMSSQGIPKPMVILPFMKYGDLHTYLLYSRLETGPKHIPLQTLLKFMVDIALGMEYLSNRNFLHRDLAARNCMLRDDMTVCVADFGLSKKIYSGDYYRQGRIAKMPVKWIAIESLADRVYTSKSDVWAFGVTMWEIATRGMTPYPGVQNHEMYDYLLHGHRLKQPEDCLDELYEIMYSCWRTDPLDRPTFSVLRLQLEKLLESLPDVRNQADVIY
Test: Kinase enzymatic activity assay ([33P]-ATP phosphate transfer), Mer
Assay type: biochemical
Settings: inhibitory activity on Mer; class symbols
pIC50: −log10 of the molar value.
MEASUREMENT_LABEL: pIC50

- CC(C)(C)OC(=O)N1CCC(n2cc(-c3cnc(N)c(-c4nnc(-c5cccnc5)o4)c3)cn2)CC1: 5.00 to 6.00
- CN1CCC(n2cc(-c3cnc(N)c(-c4noc(-c5ccccc5)n4)c3)cn2)CC1: 6.00 to 6.30
- CN1CCC(n2cc(-c3cnc(N)c(-c4ncc(-c5cccc(Cl)c5)o4)c3)cn2)CC1: > 6.30
- CN1CCC(n2cc(-c3cnc(N)c(-c4nc(-c5ccccc5)no4)c3)cn2)CC1: > 6.30
- Nc1ncc(-c2cnn(C3CCNCC3)c2)cc1-c1nnc(-c2cccnc2)o1: > 6.30
- Nc1ncc(-c2cnn(C3CCN(C(=O)c4ccccc4)CC3)c2)cc1-c1nc(-c2ccccc2)no1: 5.00 to 6.00

====

Target: Recombinant human Tyro3 (455-end) (Homo sapiens)
Construct: GST (N)
Assay: Kinase enzymatic activity assay ([33P]-ATP phosphate transfer), Tyro3
Conditions: inhibitory activity on Tyro3; class symbols
// reported IC50 per item
MEASUREMENT_LABEL: IC50

- Nc1ncc(-c2cnn(C3CCCCC3)c2)cc1-c1nc(-c2c(Cl)cccc2Cl)no1: < 0.5 µM
- CC(C)(C)OC(=O)N1CCC(n2cc(-c3cnc(N)c(-c4nnc(-c5nccs5)o4)c3)cn2)CC1: 1 to 10 µM
- Nc1ncc(-c2cnn(C3CCN(C(=O)C4CC4)CC3)c2)cc1-c1nnc(-c2c(Cl)cccc2Cl)o1: < 0.5 µM
- Nc1ncc(-c2cnn(C3CCNCC3)c2)cc1-c1ccc(-c2ccccc2)o1: < 0.5 µM
- CC(C)(C)OC(=O)N1CCC(n2cc(-c3cnc(N)c(-c4nnc(-c5ccccn5)o4)c3)cn2)CC1: 1 to 10 µM
- CC(C)(C)OC(=O)N1CCC(n2cc(-c3cnc(N)c(-c4nnc(-c5c(Cl)cccc5Cl)o4)c3)cn2)CC1: 1 to 10 µM
- CCN1CCC(n2cc(-c3cnc(N)c(-c4nc(-c5ccccc5)no4)c3)cn2)CC1: < 0.5 µM
- Nc1ncc(-c2cnn(C3CCNCC3)c2)cc1-c1nnc(CC2CC2)o1: < 0.5 µM
- CC(=O)N1CCC(n2cc(-c3cnc(N)c(-c4ncc(-c5cccc(Cl)c5)o4)c3)cn2)CC1: < 0.5 µM
